# Tested on: HGC-27
# EXPERIMENT NOTES: Antiproliferative activity against human HGC27 cells by MTT assay
# Format: functional, cell-based
// reported IC50 per item

[
  {
    "SMILES STRUCTURE": "CC[C@@H](C(=O)[C@@H](C)[C@@H](O)[C@H](C)[C@@H]1O[C@@H]([C@@H](CC)C(=O)O)CC[C@@H]1C)[C@H]1O[C@]2(C=C[C@H](OC(=O)CC(C)C)[C@]3(CC[C@@](C)([C@H]4CC[C@](O)(CC)[C@H](C)O4)O3)O2)[C@H](C)C[C@@H]1C",
    "IC50, nM": 860
  },
  {
    "SMILES STRUCTURE": "CC[C@@H](C(=O)[C@@H](C)[C@@H](O)[C@H](C)[C@@H]1O[C@@H]([C@@H](CC)C(=O)O)CC[C@@H]1C)[C@H]1O[C@]2(C=C[C@H](OC(C)=O)[C@]3(CC[C@@](C)([C@H]4CC[C@](O)(CC)[C@H](C)O4)O3)O2)[C@H](C)C[C@@H]1C",
    "IC50, nM": 940
  },
  {
    "SMILES STRUCTURE": "CC[C@@H](C(=O)[C@@H](C)[C@@H](O)[C@H](C)[C@@H]1O[C@@H]([C@@H](CC)C(=O)O)CC[C@@H]1C)[C@H]1O[C@]2(C=C[C@@H](O)[C@]3(CC[C@@](C)([C@H]4CC[C@](O)(CC)[C@H](C)O4)O3)O2)[C@H](C)C[C@@H]1C",
    "IC50, nM": 2570
  },
  {
    "SMILES STRUCTURE": "CCC(=O)O[C@H]1C=C[C@]2(O[C@H]([C@@H](CC)C(=O)[C@@H](C)[C@@H](O)[C@H](C)[C@@H]3O[C@@H]([C@@H](CC)C(=O)O)CC[C@@H]3C)[C@@H](C)C[C@H]2C)O[C@@]12CC[C@@](C)([C@H]1CC[C@](O)(CC)[C@H](C)O1)O2",
    "IC50, nM": 890
  },
  {
    "SMILES STRUCTURE": "CC[C@@H](C(=O)[C@@H](C)[C@@H](O)[C@H](C)[C@@H]1O[C@@H]([C@@H](CC)C(=O)O)CC[C@@H]1C)[C@H]1O[C@]2(C=C[C@H](OC(=O)c3ccccc3)[C@]3(CC[C@@](C)([C@H]4CC[C@](O)(CC)[C@H](C)O4)O3)O2)[C@H](C)C[C@@H]1C",
    "IC50, nM": 240
  }
]

###

# Tested on: HeLa
# EXPERIMENT NOTES: Antiproliferative activity against human HeLa cells by MTT assay
# Format: functional, cell-based
pIC50: −log10 of the molar value.

[
  {
    "SMILES STRUCTURE": "CC[C@@H](C(=O)[C@@H](C)[C@@H](O)[C@H](C)[C@@H]1O[C@@H]([C@@H](CC)C(=O)O)CC[C@@H]1C)[C@H]1O[C@]2(C=C[C@H](n3cc(-c4ccccn4)nn3)[C@]3(CC[C@@](C)([C@H]4CC[C@](O)(CC)[C@H](C)O4)O3)O2)[C@H](C)C[C@@H]1C",
    "pIC50": 6.21
  },
  {
    "SMILES STRUCTURE": "CC[C@@H](C(=O)[C@@H](C)[C@@H](O)[C@H](C)[C@@H]1O[C@@H]([C@@H](CC)C(=O)O)CC[C@@H]1C)[C@H]1O[C@]2(C=C[C@H](n3cc(COC(C(F)(F)F)(C(F)(F)F)C(F)(F)F)nn3)[C@]3(CC[C@@](C)([C@H]4CC[C@](O)(CC)[C@H](C)O4)O3)O2)[C@H](C)C[C@@H]1C",
    "pIC50": 6.54
  },
  {
    "SMILES STRUCTURE": "CC[C@@H](C(=O)[C@@H](C)[C@@H](O)[C@H](C)[C@@H]1O[C@@H]([C@@H](CC)C(=O)O)CC[C@@H]1C)[C@H]1O[C@]2(C=C[C@@H](O)[C@]3(CC[C@@](C)([C@H]4CC[C@](O)(CC)[C@H](C)O4)O3)O2)[C@H](C)C[C@@H]1C",
    "pIC50": 6.49
  },
  {
    "SMILES STRUCTURE": "CC[C@@H](C(=O)[C@@H](C)[C@@H](O)[C@H](C)[C@@H]1O[C@@H]([C@@H](CC)C(=O)O)CC[C@@H]1C)[C@H]1O[C@]2(C=C[C@H](n3cc(-c4ccc(-c5ccccc5)cc4)nn3)[C@]3(CC[C@@](C)([C@H]4CC[C@](O)(CC)[C@H](C)O4)O3)O2)[C@H](C)C[C@@H]1C",
    "pIC50": 6.48
  },
  {
    "SMILES STRUCTURE": "CC[C@@H](C(=O)[C@@H](C)[C@@H](O)[C@H](C)[C@@H]1O[C@@H]([C@@H](CC)C(=O)O)CC[C@@H]1C)[C@H]1O[C@]2(C=C[C@H](n3cc(-c4ccc(C(C)(C)C)cc4)nn3)[C@]3(CC[C@@](C)([C@H]4CC[C@](O)(CC)[C@H](C)O4)O3)O2)[C@H](C)C[C@@H]1C",
    "pIC50": 5.70
  }
]

###

# System: MCF7
# EXPERIMENT NOTES: Antiproliferative activity against human MCF7 cells
# Assay type: functional, cell-based
pIC50: −log10 of the molar value.
Entries annotated with measured pIC50
PROPERTY MEASURED: pIC50

[
  {
    "SMILES STRUCTURE": "CC[C@@H](C(=O)[C@@H](C)[C@@H](O)[C@H](C)[C@@H]1O[C@@H]([C@@H](CC)C(=O)O)CC[C@@H]1C)[C@H]1O[C@]2(CCC(=O)[C@]3(CC[C@@](C)([C@H]4CC[C@](O)(CC)[C@H](C)O4)O3)O2)[C@H](C)C[C@@H]1C",
    "TEST VALUE": 5.51
  },
  {
    "SMILES STRUCTURE": "CC[C@@H]([C@@H](O)[C@@H](C)[C@@H](O)[C@H](C)[C@@H]1O[C@@H]([C@@H](CC)C(=O)O)CC[C@@H]1C)[C@H]1O[C@]2(C=C[C@@H](O)[C@]3(CC[C@@](C)([C@H]4CC[C@](O)(CC)[C@H](C)O4)O3)O2)[C@H](C)C[C@@H]1C",
    "TEST VALUE": 4.86
  },
  {
    "SMILES STRUCTURE": "CC[C@@H](C(=O)[C@@H](C)[C@@H](O)[C@H](C)[C@@H]1O[C@@H]([C@@H](CC)C(=O)O)CC[C@@H]1C)[C@H]1O[C@]2(CC[C@@H](O)[C@]3(CC[C@@](C)([C@H]4CC[C@](O)(CC)[C@H](C)O4)O3)O2)[C@H](C)C[C@@H]1C",
    "TEST VALUE": 6.05
  },
  {
    "SMILES STRUCTURE": "CC[C@@H]([C@H](O)[C@@H](C)[C@@H](O)[C@H](C)[C@@H]1O[C@@H]([C@@H](CC)C(=O)O)CC[C@@H]1C)[C@H]1O[C@]2(C=C[C@@H](O)[C@]3(CC[C@@](C)([C@H]4CC[C@](O)(CC)[C@H](C)O4)O3)O2)[C@H](C)C[C@@H]1C",
    "TEST VALUE": 4.90
  }
]

###

# Test system: Caco-2
# EXPERIMENT NOTES: Antiproliferative activity against human Caco2 cells by MTT assay
# Format: functional, cell-based
Catalogue of IC50 readings, one per entry.

[
  {
    "SMILES STRUCTURE": "CC[C@@H](C(=O)[C@@H](C)[C@@H](O)[C@H](C)[C@@H]1O[C@@H]([C@@H](CC)C(=O)O)CC[C@@H]1C)[C@H]1O[C@]2(C=C[C@H](n3cc(COC(C(F)(F)F)(C(F)(F)F)C(F)(F)F)nn3)[C@]3(CC[C@@](C)([C@H]4CC[C@](O)(CC)[C@H](C)O4)O3)O2)[C@H](C)C[C@@H]1C",
    "TARGET UNDER TEST": "Caco-2",
    "MEASURE UNIT": "nM",
    "IC50": 440
  },
  {
    "SMILES STRUCTURE": "CC[C@@H](C(=O)[C@@H](C)[C@@H](O)[C@H](C)[C@@H]1O[C@@H]([C@@H](CC)C(=O)O)CC[C@@H]1C)[C@H]1O[C@]2(C=C[C@@H](O)[C@]3(CC[C@@](C)([C@H]4CC[C@](O)(CC)[C@H](C)O4)O3)O2)[C@H](C)C[C@@H]1C",
    "TARGET UNDER TEST": "Caco-2",
    "MEASURE UNIT": "nM",
    "IC50": 13000
  },
  {
    "SMILES STRUCTURE": "CC[C@@H](C(=O)[C@@H](C)[C@@H](O)[C@H](C)[C@@H]1O[C@@H]([C@@H](CC)C(=O)O)CC[C@@H]1C)[C@H]1O[C@]2(C=C[C@H](n3cc(-c4ccc(C(C)(C)C)cc4)nn3)[C@]3(CC[C@@](C)([C@H]4CC[C@](O)(CC)[C@H](C)O4)O3)O2)[C@H](C)C[C@@H]1C",
    "TARGET UNDER TEST": "Caco-2",
    "MEASURE UNIT": "nM",
    "IC50": 1820
  },
  {
    "SMILES STRUCTURE": "CC[C@@H](C(=O)[C@@H](C)[C@@H](O)[C@H](C)[C@@H]1O[C@@H]([C@@H](CC)C(=O)O)CC[C@@H]1C)[C@H]1O[C@]2(C=C[C@H](n3cc(-c4ccccn4)nn3)[C@]3(CC[C@@](C)([C@H]4CC[C@](O)(CC)[C@H](C)O4)O3)O2)[C@H](C)C[C@@H]1C",
    "TARGET UNDER TEST": "Caco-2",
    "MEASURE UNIT": "nM",
    "IC50": 3310
  },
  {
    "SMILES STRUCTURE": "CC[C@@H](C(=O)[C@@H](C)[C@@H](O)[C@H](C)[C@@H]1O[C@@H]([C@@H](CC)C(=O)O)CC[C@@H]1C)[C@H]1O[C@]2(C=C[C@H](n3cc(-c4ccc(-c5ccccc5)cc4)nn3)[C@]3(CC[C@@](C)([C@H]4CC[C@](O)(CC)[C@H](C)O4)O3)O2)[C@H](C)C[C@@H]1C",
    "TARGET UNDER TEST": "Caco-2",
    "MEASURE UNIT": "nM",
    "IC50": 1290
  }
]

All values here come from ChEMBL document CHEMBL4316586.
